- test.system: human μ-opioid receptor (Homo sapiens)
- Sequence (P35372 whole entry): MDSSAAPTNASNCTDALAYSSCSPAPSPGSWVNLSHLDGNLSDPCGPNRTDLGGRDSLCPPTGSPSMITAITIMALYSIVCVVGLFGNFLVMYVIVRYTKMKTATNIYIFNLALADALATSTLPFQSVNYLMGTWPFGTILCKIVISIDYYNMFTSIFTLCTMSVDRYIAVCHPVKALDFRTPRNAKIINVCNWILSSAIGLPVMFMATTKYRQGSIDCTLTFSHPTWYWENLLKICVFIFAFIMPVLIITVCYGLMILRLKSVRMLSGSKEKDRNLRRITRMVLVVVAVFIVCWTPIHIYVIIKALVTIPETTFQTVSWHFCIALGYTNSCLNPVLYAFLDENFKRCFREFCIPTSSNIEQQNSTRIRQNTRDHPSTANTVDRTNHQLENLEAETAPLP
- Type: cell-based
- applied.conditions: read-out: EC50, μM (PAM mode)
measurement.type: EC50 (µM)

compound="COc1ccc(C2SCCN2S(=O)(=O)c2ccc(Cl)cc2)cc1Br (stereo not shown)" unit_text=µM numeric_value=16.2

// data source = paper PMC4703110
